- target-system: rat mAChR M4 (Rattus norvegicus, UniProt P08485)
- Sequence (P08485 whole entry): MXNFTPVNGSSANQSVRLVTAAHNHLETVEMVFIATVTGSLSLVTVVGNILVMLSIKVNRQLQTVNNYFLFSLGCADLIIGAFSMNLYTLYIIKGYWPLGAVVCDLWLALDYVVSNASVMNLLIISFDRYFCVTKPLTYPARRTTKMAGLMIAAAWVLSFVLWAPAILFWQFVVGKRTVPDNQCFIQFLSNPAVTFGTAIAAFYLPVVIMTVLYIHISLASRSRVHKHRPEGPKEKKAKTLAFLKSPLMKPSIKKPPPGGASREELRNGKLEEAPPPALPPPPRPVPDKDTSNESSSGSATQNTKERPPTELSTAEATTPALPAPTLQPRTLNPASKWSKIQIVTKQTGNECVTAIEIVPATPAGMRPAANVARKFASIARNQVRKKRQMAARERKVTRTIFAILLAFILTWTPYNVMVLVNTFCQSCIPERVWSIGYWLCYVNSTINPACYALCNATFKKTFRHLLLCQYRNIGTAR
- measurement-description: mAChR M4 cell-based functional assay (calcium flux), rat M4
- experimental-context: read-out: Rat M4 EC50; CHO-K1 rM4-Gqi5 cells; calcium flux; increase in EC20 acetylcholine response
observable: pEC50
Give bare numbers, as −log10 of the molar value.

Worked examples follow.
- Cc1nnc2sc3c(N(C)C)ncnc3c2c1C: 6.14
- Cc1nnc2sc3c(NC4CCCCC4)ncnc3c2c1C: 6.08
- Cc1nnc2sc3c(N4CC5CC5C4)ncnc3c2c1C (stereo not shown): 7.44
- Cc1cnc2sc3c(N4CCC4)ncnc3c2c1: 5.60
- Cc1nnc2sc3c(N4CCC(N(C)C)C4)ncnc3c2c1C (stereo not shown): 6.49

# map each compound to its pEC50
1. Cc1nnc2sc3c(NC4CCC4)ncnc3c2c1C
2. Cc1nnc2sc3c(N4CC5(COC5)C4)ncnc3c2c1C
3. COCCN(C)c1ncnc2c1sc1nnc(C)c(C)c12
4. FC(F)(F)c1cnc(N2CC(Nc3ncnc4c3sc3nccnc34)C2)nc1
5. Cc1nnc2sc3c(NC4CCOCC4)ncnc3c2c1C

6.95
6.64
6.03
5.55
6.28
